test: Oral bioavailability in Beagle dog at 10 to 40 mg/kg measured up to 8 hrs by LC-MS/MS analysis; format: ADME, organism-based, Canis lupus familiaris; details: in vivo, dose 10-40 mg/kg
ENDPOINT LABEL: bioavailability (%)
Give bare numbers, in %.

INPUT: Query (molecule): C[C@@H]1O[C@@H](O[C@@H]2[C@@H](O)[C@H](OCCc3ccc(O)c(O)c3)O[C@H](CO)[C@H]2OC(=O)/C=C/c2ccc(O)c(O)c2)[C@H](O)[C@H](O)[C@H]1O [ACETOSIDE] ; field requested: bioavailability
OUTPUT: 4

* * *

assay: Tmax in Beagle dog at 10 to 40 mg/kg, po measured up to 8 hrs by LC-MS/MS analysis; format: ADME, organism-based, Canis lupus familiaris; conditions: in vivo, dose 10-40 mg/kg
ENDPOINT LABEL: Tmax (min)
Answers are plain numbers, in min.

INPUT: # Tmax lookup, item C[C@@H]1O[C@@H](O[C@@H]2[C@@H](O)[C@H](OCCc3ccc(O)c(O)c3)O[C@H](CO)[C@H]2OC(=O)/C=C/c2ccc(O)c(O)c2)[C@H](O)[C@H](O)[C@H]1O [ACETOSIDE]
OUTPUT: 30
